test: HUVEC growth inhibition – cell-based, human, primary screen (AID 575); settings: HUVEC proliferation, CellTiter-Glo luminescence, 72 h; at 10 µM; stronger effect = lower value;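 further: 100% = median of untreated cell wells with 0.1% DMSO on each plate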
Binary call on viability with cut-off 90%: strictly below means T, and equality or higher means F.

As a guide, the following entries are already answered.
CC(=O)NCc1ccc(C(=O)CSc2nnc(-c3ccncc3)n2Cc2ccccc2)o1 ... F
CCN(CC)CCOC(=O)C1(c2ccc(OC)c(OC)c2)CCCC1 ... F
Cc1ccc(Cn2ccc(NC(=O)c3noc4c3CCCC4)n2)cc1 ... F
Cc1onc(-c2c(Cl)cccc2Cl)c1C(=O)NCCN1CCOCC1 ... F
COc1cc(NC(=O)Nc2cccc(C(C)=O)c2)cc(OC)c1OC ... F
COc1ccc(C(C(C(=O)c2cccs2)N2CCOCC2)N2CCOCC2)cc1OC (stereo unspecified) ... T

Prompt: Given CCOC(=O)Nc1ccc2c(c1)N(C(=O)CCN1CCOCC1)c1ccccc1S2 , is recorded viability strictly lower than 90%?
Response: F

Prompt: Criterion: viability strictly below 90%. Is it met by COc1ccc(C2C3=C(OC(C)=O)c4ccccc4C3=Nc3c2c(=O)n(C)c(=O)n3C)cc1 (stereo unspecified) ?
Response: T

Prompt: Strictly below 90% in viability? O=C1C(Cl)=C(NCC2CCCO2)C(=O)N1CCc1ccccc1 (stereo unspecified)
Response: F

Prompt: Is viability strictly under 90% for the entry Cn1c(=N)c(S(=O)(=O)c2ccccc2)cc2c(=O)n3ccccc3nc21 ?
Response: T

---

test: growth suppression of yeast trafficking mutant, preliminary HTS, modulators of trafficking downstream of Golgi apparatus project, 1536-format plate, OD 615 nm (AID 637); settings: yeast transport mutant growth, absorbance 615 nm, 18 h; stronger effect = higher value
Exercise: for every item that follows, state its recorded inhibition.
Numbers only, in %.

The examples below pair each entry with its known result.
COc1cc(NC(=O)c2ccc(COCC(F)(F)F)o2)cc(OC)c1OC ... 2.58
O=C(NCc1ccco1)c1cc2c(s1)CSC2 ... 2.86
CCn1c(SCC(=O)Nc2cc(NC(C)=O)ccc2OC)nnc1-c1ccccn1 ... 2.1

Batch lookup, inhibition per entry.
1. Cc1cnc(C(=O)Nc2ccc(N3CCN(C(=O)OC(C)(C)C)CC3)cc2)cn1
2. COc1ccc(CNC(=O)Cn2nc(C(F)(F)F)c3c2CCC3)cc1
3. CC(=O)N1C(=O)c2cccc3cccc(c23)C(=O)N1C(C)=O

Response:
1. -6.51
2. 5.74
3. -1.43

---

test: SK-BR-3 cell growth inhibitors, pilot screen, 24 h, human (AID 572); conditions: SK-BR-3 viability, CellTiter-Glo luminescence, at 10 µM, stronger effect = lower value;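 further: compound exposure lasted between 18 and 24 h rather than exactly 24 h; 100% = carrier-treated control wells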
Can you tell me viability for the items I'm about to list?
One number for each entry, in %.

Cc1ccc(CNC(=O)c2coc(=O)c3ccccc23)o1 ... 93.5

For each of the items listed, what is its viability?
1. CCOc1ccc2c(O)csc2c1
2. CCOC(=O)C1CCN(C(=O)Nc2ccc3nc(C)c(C)nc3c2)CC1
3. Cc1ccc2c(c1)sc1ncc(NC(=O)c3ccccc3)c(=O)n12
4. CCn1c(SCC(=O)Nc2cc(NC(C)=O)ccc2OC)nnc1-c1ccccn1
5. CCOc1ccccc1NC(=O)CSc1nnc2c(CC)c(C)nc(N)n12
6. O=C(NC1CC1)c1ccc(S(=O)(=O)NCC2CCCCC2)cc1
7. CC1Cc2ccccc2N1Cc1cc(=O)n2ccsc2n1 (stereo not drawn)

Response:
1: 90.5; 2: 101; 3: 88.5; 4: 93; 5: 104; 6: 112; 7: 102

Hey, can you go through the list below and give me viability for every item?
1. CN1CCN(CCCN2c3ccccc3Sc3ccc(Cl)cc32)CC1
2. N[C@@H](Cc1ccc(O)c(I)c1)C(=O)O
3. CC(=O)OC[C@H]1O[C@@H](n2ncc(=O)[nH]c2=O)[C@H](OC(C)=O)[C@@H]1OC(C)=O
4. CCOC(=O)CSc1nnc(-c2ccc(NS(=O)(=O)c3ccc(C)cc3)cc2)o1
5. CS(=O)(=O)N1CCc2cc(C(=O)N3CCCCC3)ccc21

Response:
1: 25; 2: 87; 3: 103; 4: 87; 5: 89.5

State the recorded viability for every item in the following list.
1. Cc1cc(NS(=O)(=O)c2ccc(N)cc2)no1
2. CCOC(=O)N1CCN(CC(=O)Nc2cc(C)nn2-c2nc3ccccc3s2)CC1
3. COc1ccc(OCC(=O)N2CCN(C(=O)COc3ccc(Br)cc3)CC2)cc1
4. COc1ccc(S(=O)(=O)NCCSCc2ccco2)cc1Cl
5. COc1cccc(NC(=O)N(Cc2ccco2)C(C)c2cccs2)c1 (stereo not drawn)
6. CC(=O)Nc1ccc(NC(=O)c2cc(C)nn2-c2ccccc2)cc1
7. CCOCC(=O)Nc1c(C(=O)Nc2ccc(OC)cc2OC)oc2ccccc12

Response:
1: 111; 2: 74; 3: 84.5; 4: 48; 5: 92; 6: 84; 7: 65.5

---

assay: growth inhibitors of H69AR lung tumor, primary screen, human, duplicate replicates (AID 580); conditions: H69AR lung tumor cells viability, ATP luminescence, 72 h; at 10 µM; stronger effect = lower value;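 further: 100% = mean luminescence of untreated wells and 0% = no signal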
Assignment: determine reported viability for the given compounds.
Numbers only, in %.

Example compounds with recorded viability:
O=S(=O)(c1ccc(S(=O)(=O)N(Cc2ccco2)Cc2ccccc2Cl)cc1)N1CCCC1 ... 76.6
Cc1c(O)c(CN2CCCC(C)C2)cc2c3c(c(=O)oc12)CCC3 (stereo not drawn) ... 83.1
COc1ccc(CNc2nc3nc(C)c(Cl)c(C)n3n2)cc1OC ... 92.6
CCOC(=O)N1CCC(N(C(=O)Nc2ccc(Cl)c(Cl)c2)C(C)CC)CC1 (stereo not drawn) ... 97.7

Quick request: viability for each listed item, please.
1. O=C(NCCN1CCOCC1)NC1(C(F)(F)F)Oc2ccc(Cl)cc2O1 (stereo not drawn)
2. Cc1coc(NC(=O)CSc2nc(-c3ccncc3)cc(C(F)(F)F)c2C#N)n1
3. O=C(NCC12CC3CC(C1)CC(CNC(=O)N1CCCC1)(C3)C2)N1CCCC1
4. COc1ccc(Cc2nc(-c3ccc(Br)cc3)no2)cc1

Response:
1. 22.6
2. 71.8
3. 84.8
4. 98.2

---

assay: reversal of MRP1-mediated doxorubicin resistance, pilot screen, H69AR cells, doxorubicin co-treatment (AID 601); conditions: H69AR cells, CellTiter-Glo, 72 h; compound alone cytotoxicity; at 10 µM
Property Name: viability (%)
Give bare numbers, in %.

Answered cases to consult:
Cc1cccnc1NC(=O)CCCN1C(=O)c2ccccc2C1=O ... 94.7
N#CC1=C(N)N(c2ccc(Oc3ccccc3)cc2)C(=O)C1 ... 90.2
O=c1c2ccccc2nc(SCc2nnc(-c3ccccc3Br)o2)n1-c1ccccc1 ... 84.2
Cc1nnc(NC(=O)CSc2nnc(-c3ccc(S(=O)(=O)N4CCCC4)cc3)n2C)s1 ... 99
CC(C)CN(CC(C)C)c1nc(N)c(C#N)c(CC#N)c1C#N ... 86.7
CCOc1ccc(OCC)c2sc(C)nc12 ... 99.5
CCN(CC)CC(=O)Nc1ccc(-c2nc3cc(NC(=O)CN(CC)CC)ccc3o2)cc1 ... 44.2
CCCCOc1ccccc1C1C(C(N)=O)=C(C)Nc2nnnn21 (stereo not given) ... 93.3

Please report viability for every entry that follows.
1. CN(Cc1ccccc1)C(=O)c1ccccc1NC(=O)c1ccco1
2. CCCc1cc(=O)[nH]c(Nc2ccc(OC)c(Cl)c2)n1
3. CCOC(=O)c1sc2nc(SCC(=O)NCc3ccco3)n(Cc3ccccc3)c(=O)c2c1C

Response:
1. 101
2. 70.6
3. 46

---

assay: 384-well plate pilot, post-Golgi transport modulator project, inhibition of yeast transport mutant growth (AID 636); conditions: absorbance 615 nm, about 18 h, stronger effect = higher value
Property Name: inhibition (%)
Answers are plain numbers, in %.

These solved cases illustrate the format of a correct answer.
CN(CCNC(=O)c1ccc(N2CCCC2=O)cc1)CCc1ccccc1 ... -7.95
Cc1c(NC(=O)CCc2ccc(S(=O)(=O)N3CCOCC3)cc2)c(=O)n(-c2ccccc2)n1C ... -3.77
Cc1cc(C(=O)Nc2nc3c(s2)CCCC3)cs1 ... -0.14

Below are some molecules; for each one, tell me its inhibition.
1. CCN(CC)S(=O)(=O)c1ccc2[nH]cc(C(=O)NCCC3=CCCCC3)c(=O)c2c1
2. O=S(=O)(NCc1cn2ccccc2n1)c1cc(F)ccc1F
3. Cc1nc2sccn2c(=O)c1CCN1CCC(=C(c2ccccc2)c2ccc(F)cc2)CC1
4. Cn1ncc2c(Nc3ccccc3Br)ncnc21
5. CCC(C(=O)N1CCc2cc(OC)c(OC)cc2C1)c1ccccc1 (centres undefined)

Response:
1: -6.4; 2: -5.68; 3: -0.13; 4: -7.67; 5: -4.52

Lookup result for CCCCc1c(O)nc(N2CCN(Cc3ccccc3)CC2)[nH]c1=O ; measured inhibition: -7.16
